Biological target: T1, HLA-A*0201 loaded with the Carcinoembryonic antigen (CEA)-derived … peptide (biotin on the C-terminal biotinylation tag)
T1 construct: Soluble, biotinylated, immobilised on a streptavidin chip
Assay: Biacore SPR
pKd: −log10 of the molar value.
Collected pKd values appear next to each entry.

>  <binder>
SEQ ID NO 6 (receptor, mutated soluble two domain ILT-2) MHLPKPTLWAEPGSVITLQSPVTLRCQGGQETQQYRLYREKKTAPWITRIPQELVKKGQFPIPSITWEHAGRYRCYYGSDTRQWSASSDPLELVVTGVYIKPTLSAQPSPVVNSGGNVTLQCDSQVAFDGFILCKEGEDDHPQCLNSQPHARGSSRAIFSVGPVSPSRRWRYRCYAYDSNSPYEWSLPSDLLELDVDG

>  <pKd>
≥ 6.00

$$$$

We now examine a further binder.
Answer with the recorded pKd of SEQ ID NO 116 (receptor, mutated soluble two domain ILT-2) MHLPKPTLWAEPGSVITLQSPVTLRCQGGQETQEYRLYREKKTAPWITRIPQELVKKGQFPIPSITWEHAGRYRCYYGSDTSQWSASSDPLELVVTGVYIKPTLSAQPSPVVNSGGNVTLQCDSQVAFDGFILCKEGEDEHPQCLNSQPHARGSSRAIFSVGPVSPSRRWWYRCYAYDSNSPYEWSLPSDLLELDVDG only.
≥ 6.00

Source: patent US20100135997A1
